Catalogue of GI50 values
- Tested on: HOP-62 NSCLC
- PROTOCOL_SUMMARY: NCI tumour cell line growth inhibition, 48 h

These solved cases illustrate the format of a correct answer.
[
  {
    "SMILES_STRING": "O=C(Nc1ccc(Cl)c([N+](=O)[O-])c1)Nc1nc2ccccc2s1",
    "GI50": "3.21 µM"
  },
  {
    "SMILES_STRING": "CC(C)(C)[OH+][O-].[O-]c1ccc(Cl)cc1C=Nc1ccc(Cl)cc1[O-].[O]=[V]",
    "GI50": "23.7 µM"
  }
]

Kindly review the next compound as well.
Bench note: what GI50 did CN1CCN(Cc2ccc(-c3cc4ncnc(Nc5ccc(OCc6cccc(F)c6)c(Cl)c5)c4s3)o2)CC1 show?
4.64 µM

====

Catalogue of TGI values
- Tested on: SR leukemia
- PROTOCOL_SUMMARY: NCI tumour cell line growth inhibition, 48 h

[
  {
    "COMPOUND": "Cc1ccc(/C=C2\\CN(C)CC3=C2OC(N)=C(C#N)C3c2ccc(C)cc2)cc1 (stereo not given)",
    "TGI": "> 100 µM"
  }
]

Bench note: what TGI did Oc1c(CN2CCC(N3CCOCC3)CC2)cc(Cc2cc(CN3CCC(N4CCOCC4)CC3)c(O)c3ncccc23)c2cccnc12 show?
20.5 µM

Please answer likewise for Cc1cc2c(c3c1c1ccccc1n3C)C(=O)C=CC2=O
4.56 µM

Please answer likewise for CN1C2CCC1CC(OC(c1ccccc1)c1ccccc1)C2 (stereo not given)
42 µM

Please answer likewise for Cc1ccc(Nc2nc(NCCO)c3ccccc3n2)cc1C
6.08 µM

====

- Tested on: CCRF-CEM leukemia
- PROTOCOL_SUMMARY: NCI tumour cell line growth inhibition, 48 h
ENDPOINT_NAME: TGI

Query for CCRF-CEM leukemia: what TGI does the record show for CCNc1nnc(CSc2nc(-c3ccccc3)c(-c3ccccc3)[nH]2)s1 ?
40.3 µM

====

- System: MCF7 breast
- PROTOCOL_SUMMARY: NCI tumour cell line growth inhibition, 48 h; in the data active = GI50 below about 0.43 µM; inactive = the rest
Would you mind answering with one of these outcomes? active, inactive

[
  {
    "COMPOUND": "Oc1ccc(C(c2ccccc2)(c2ccccc2)c2ccccc2)cc1",
    "ASSIGNED_CATEGORY": "inactive"
  },
  {
    "COMPOUND": "O=C1/C(=C/c2cccc([N+](=O)[O-])c2)COc2ccc(O)c(O)c21",
    "ASSIGNED_CATEGORY": "inactive"
  },
  {
    "COMPOUND": "Cc1ccc(Nc2nc(NCCO)c3ccccc3n2)cc1C",
    "ASSIGNED_CATEGORY": "inactive"
  },
  {
    "COMPOUND": "CC(C)(C)[OH+][O-].[O-]c1ccc(Cl)cc1C=Nc1ccc(Cl)cc1[O-].[O]=[V]",
    "ASSIGNED_CATEGORY": "inactive"
  },
  {
    "COMPOUND": "O=C(Nc1ccc(S(=O)(=O)Nc2nccs2)cc1)c1cccnc1Nc1cccc(Cl)c1",
    "ASSIGNED_CATEGORY": "inactive"
  }
]

Test call, this compound: CCn1c(=O)c(-c2ccn[nH]2)cc2c(C)nc(N)nc21
active

Please answer likewise for O=C1c2ccccc2-c2c1c1ccccc1c(=O)n2CCCNCCCn1c2c(c3ccccc3c1=O)C(=O)c1ccccc1-2
inactive

Please answer likewise for O=[N+]([O-])c1ccc(N2CCN(Cc3ccccc3)CC2)c2c1no[n+]2[O-]
inactive
